Target: hGLP1 receptor (Homo sapiens, UniProt P43220)
Construct: expressed in transfected cells; host or cells: HEK (human embryonic kidney) cells co-expressing hGLP1 receptor and CRE-Luciferase
Sequence (P43220 24-463): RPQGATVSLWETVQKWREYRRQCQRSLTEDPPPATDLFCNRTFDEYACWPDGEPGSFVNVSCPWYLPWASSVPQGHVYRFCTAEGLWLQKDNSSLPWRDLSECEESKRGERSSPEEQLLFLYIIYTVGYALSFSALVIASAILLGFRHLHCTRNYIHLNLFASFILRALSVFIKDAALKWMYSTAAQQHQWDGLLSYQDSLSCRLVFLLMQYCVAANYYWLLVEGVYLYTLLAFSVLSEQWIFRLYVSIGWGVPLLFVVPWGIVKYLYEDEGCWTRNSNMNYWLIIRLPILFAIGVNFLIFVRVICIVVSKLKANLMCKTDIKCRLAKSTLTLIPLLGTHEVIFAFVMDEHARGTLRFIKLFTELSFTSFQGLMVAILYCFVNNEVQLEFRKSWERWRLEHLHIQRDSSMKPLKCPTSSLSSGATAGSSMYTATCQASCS
Experiment: GLP-1 receptor agonism assay (HTRF cAMP, HEK cells co-expressing hGLP1 receptor and CRE-Luciferase)
Format: cell-based
Conditions: Table 1, Phe6 modifications, 0% HSA; average of two independent experiments in triplicate (RXL-3039 tested once); read-out: cAMP EC50
Square brackets hold non-standard residues; d marks the D form. Peptide text beside a SMILES is read from it. Bip = N[C@@H](Cc1ccc(-c2ccccc2)cc1)C(=O)O; Aib = CC(C)(N)C(=O)O
Record form. Attribute: EC50. Fill in for each entry.
Numbers only, in nM.

Q) May I ask what EC50 has been recorded for C[C@@H](O)[C@H](NC(=O)CNC(=O)[C@H](CCC(=O)O)NC(=O)C(C)(C)NC(=O)[C@@H](N)Cc1c[nH]cn1)C(=O)N[C@@H](Cc1ccccc1C(F)(F)F)C(=O)N[C@H](C(=O)N[C@@H](CO)C(=O)N[C@@H](CC(=O)O)C(=O)N[C@@H](Cc1ccc(-c2ccccc2)cc1)C(=O)N[C@@H](Cc1ccc(-c2ccccc2)cc1)C(N)=O)[C@@H](C)O [RXL-3012] ?
A) 13.9

Q) May I ask what EC50 has been recorded for C[C@@H](O)[C@H](NC(=O)CNC(=O)[C@H](CCC(=O)O)NC(=O)C(C)(C)NC(=O)[C@@H](N)Cc1c[nH]cn1)C(=O)N[C@@H](Cc1ccccc1Br)C(=O)N[C@H](C(=O)N[C@@H](CO)C(=O)N[C@@H](CC(=O)O)C(=O)N[C@@H](Cc1ccc(-c2ccccc2)cc1)C(=O)N[C@@H](Cc1ccc(-c2ccccc2)cc1)C(N)=O)[C@@H](C)O [RXL-3010] ?
A) 3.85

Q) May I ask what EC50 has been recorded for C[C@@H](O)[C@H](NC(=O)CNC(=O)[C@H](CCC(=O)O)NC(=O)C(C)(C)NC(=O)[C@@H](N)Cc1c[nH]cn1)C(=O)N[C@H](Cc1ccccc1)C(=O)N[C@H](C(=O)N[C@@H](CO)C(=O)N[C@@H](CC(=O)O)C(=O)N[C@@H](Cc1ccc(-c2ccccc2)cc1)C(=O)N[C@@H](Cc1ccc(-c2ccccc2)cc1)C(N)=O)[C@@H](C)O [RXL-3022] ?
A) 23.2

Q) May I ask what EC50 has been recorded for C[C@@H](O)[C@H](NC(=O)CNC(=O)[C@H](CCC(=O)O)NC(=O)C(C)(C)NC(=O)[C@@H](N)Cc1c[nH]cn1)C(=O)N[C@@H](Cc1cccc(C(F)(F)F)c1)C(=O)N[C@H](C(=O)N[C@@H](CO)C(=O)N[C@@H](CC(=O)O)C(=O)N[C@@H](Cc1ccc(-c2ccccc2)cc1)C(=O)N[C@@H](Cc1ccc(-c2ccccc2)cc1)C(N)=O)[C@@H](C)O [RXL-3016] ?
A) 13.9

Q) May I ask what EC50 has been recorded for C[C@@H](O)[C@H](NC(=O)CNC(=O)[C@H](CCC(=O)O)NC(=O)C(C)(C)NC(=O)[C@@H](N)Cc1c[nH]cn1)C(=O)N[C@@H](Cc1ccccc1Cl)C(=O)N[C@H](C(=O)N[C@@H](CO)C(=O)N[C@@H](CC(=O)O)C(=O)N[C@@H](Cc1ccc(-c2ccccc2)cc1)C(=O)N[C@@H](Cc1ccc(-c2ccccc2)cc1)C(N)=O)[C@@H](C)O [RXL-3011] ?
A) 0.9

Please look at the items below and tell me EC50 for each one, in order.
1. C[C@@H](O)[C@H](NC(=O)CNC(=O)[C@H](CCC(=O)O)NC(=O)C(C)(C)NC(=O)[C@@H](N)Cc1c[nH]cn1)C(=O)N[C@@H](Cc1ccccc1F)C(=O)N[C@H](C(=O)N[C@@H](CO)C(=O)N[C@@H](CC(=O)O)C(=O)N[C@@H](Cc1ccc(-c2ccccc2)cc1)C(=O)N[C@@H](Cc1ccc(-c2ccccc2)cc1)C(N)=O)[C@@H](C)O [RXL-3000]
2. C[C@@H](O)[C@H](NC(=O)CNC(=O)[C@H](CCC(=O)O)NC(=O)C(C)(C)NC(=O)[C@@H](N)Cc1c[nH]cn1)C(=O)N[C@@H](Cc1ccc(O)cc1)C(=O)N[C@H](C(=O)N[C@@H](CO)C(=O)N[C@@H](CC(=O)O)C(=O)N[C@@H](Cc1ccc(-c2ccccc2)cc1)C(=O)N[C@@H](Cc1ccc(-c2ccccc2)cc1)C(N)=O)[C@@H](C)O [RXL-3021] (H-H[Aib]EGTYTSD[Bip][Bip]-NH2)

A)
1. 0.1
2. 3

====

Biological target: hGLP1 receptor (Homo sapiens)
Construct: expressed in transfected cells; host or cells: HEK (human embryonic kidney) cells co-expressing hGLP1 receptor and CRE-Luciferase
Test: GLP-1 receptor agonism assay (HTRF cAMP, HEK cells co-expressing hGLP1 receptor and CRE-Luciferase)
Type: cell-based
Details: Table 2, Ala-scanning, 0% HSA; >1000 nM = out of range; read-out: cAMP EC50
pEC50: −log10 of the molar value. Square brackets hold non-standard residues; d marks the D form. Peptide text beside a SMILES is read from it. Bip = N[C@@H](Cc1ccc(-c2ccccc2)cc1)C(=O)O; Phe(2-F) = N[C@@H](Cc1ccccc1F)C(=O)O; Aib = CC(C)(N)C(=O)O
assay_readout: pEC50

Past entries and their recorded results:
Q) May I ask what pEC50 has been recorded for C[C@H](NC(=O)[C@@H](NC(=O)[C@H](Cc1ccccc1F)NC(=O)[C@@H](NC(=O)CNC(=O)[C@H](CCC(=O)O)NC(=O)C(C)(C)NC(=O)[C@@H](N)Cc1c[nH]cn1)[C@@H](C)O)[C@@H](C)O)C(=O)N[C@@H](CC(=O)O)C(=O)N[C@@H](Cc1ccc(-c2ccccc2)cc1)C(=O)N[C@@H](Cc1ccc(-c2ccccc2)cc1)C(N)=O [RXL-3006] (H-H[Aib]EGT[Phe(2-F)]TAD[Bip][Bip]-NH2) ?
A) 8.07

Q) May I ask what pEC50 has been recorded for C[C@H](NC(=O)[C@H](CC(=O)O)NC(=O)[C@H](CO)NC(=O)[C@@H](NC(=O)[C@H](Cc1ccccc1F)NC(=O)[C@@H](NC(=O)CNC(=O)[C@H](CCC(=O)O)NC(=O)C(C)(C)NC(=O)[C@@H](N)Cc1c[nH]cn1)[C@@H](C)O)[C@@H](C)O)C(=O)N[C@@H](Cc1ccc(-c2ccccc2)cc1)C(N)=O [RXL-3008] (H-H[Aib]EGT[Phe(2-F)]TSDA[Bip]-NH2) ?
A) < 6.00

Then there is this molecule:
Q) May I ask what pEC50 has been recorded for C[C@H](NC(=O)[C@@H](NC(=O)CNC(=O)[C@H](CCC(=O)O)NC(=O)C(C)(C)NC(=O)[C@@H](N)Cc1c[nH]cn1)[C@@H](C)O)C(=O)N[C@H](C(=O)N[C@@H](CO)C(=O)N[C@@H](CC(=O)O)C(=O)N[C@@H](Cc1ccc(-c2ccccc2)cc1)C(=O)N[C@@H](Cc1ccc(-c2ccccc2)cc1)C(N)=O)[C@@H](C)O [RXL-3038] (H-H[Aib]EGTATSD[Bip][Bip]-NH2) ?
A) < 6.00

====

Record form. Attribute: Emax. Fill in for each entry.
Target: hGLP1 receptor (Homo sapiens, UniProt P43220)
Construct: expressed in transfected cells; host or cells: HEK (human embryonic kidney) cells co-expressing hGLP1 receptor and CRE-Luciferase
Test: GLP-1 receptor agonism assay (HTRF cAMP, HEK cells co-expressing hGLP1 receptor and CRE-Luciferase)
Format: cell-based
Conditions: HEK293; Table 6 potency profile
Square brackets hold non-standard residues; d marks the D form. Peptide text beside a SMILES is read from it. Bip = N[C@@H](Cc1ccc(-c2ccccc2)cc1)C(=O)O; αMePhe(2-F) = C[C@](N)(Cc1ccccc1F)C(=O)O; Phe(2-F) = N[C@@H](Cc1ccccc1F)C(=O)O; Aib = CC(C)(N)C(=O)O
Numbers only, in %.

Past entries and their recorded results:
Q) May I ask what Emax has been recorded for C[C@@H](O)[C@H](NC(=O)CNC(=O)[C@H](CCC(=O)O)NC(=O)C(C)(C)NC(=O)[C@@H](N)Cc1c[nH]cn1)C(=O)N[C@@H](Cc1ccccc1F)C(=O)N[C@H](C(=O)N[C@@H](CO)C(=O)N[C@@H](CC(=O)O)C(=O)N[C@@H](Cc1ccc(-c2ccccc2)cc1)C(=O)N[C@@H](Cc1ccc(-c2ccccc2)cc1)C(N)=O)[C@@H](C)O [RXL-3000] ?
A) 109

Q) May I ask what Emax has been recorded for C[C@H](NC(=O)[C@H](Cc1ccc(-c2ccccc2)cc1)NC(=O)[C@H](CC(=O)O)NC(=O)[C@H](CO)NC(=O)[C@@H](NC(=O)[C@H](Cc1ccccc1F)NC(=O)[C@@H](NC(=O)CNC(=O)[C@H](CCC(=O)O)NC(=O)C(C)(C)NC(=O)[C@@H](N)Cc1c[nH]cn1)[C@@H](C)O)[C@@H](C)O)C(N)=O [RXL-3009] ?
A) 43.2

Q) May I ask what Emax has been recorded for C[C@@H](O)[C@H](NC(=O)CNC(=O)[C@H](CCC(=O)O)NC(=O)C(C)(C)NC(=O)[C@@H](N)Cc1c[nH]cn1)C(=O)N[C@@H](Cc1c[nH]c2ccccc12)C(=O)N[C@H](C(=O)N[C@@H](CO)C(=O)N[C@@H](CC(=O)O)C(=O)N[C@@H](Cc1ccc(-c2ccccc2)cc1)C(=O)N[C@@H](Cc1ccc(-c2ccccc2)cc1)C(N)=O)[C@@H](C)O [RXL-3023] (H-H[Aib]EGTWTSD[Bip][Bip]-NH2) ?
A) 106

Q) May I ask what Emax has been recorded for C[C@H](NC(=O)[C@H](Cc1ccccc1F)NC(=O)[C@@H](NC(=O)CNC(=O)[C@H](CCC(=O)O)NC(=O)C(C)(C)NC(=O)[C@@H](N)Cc1c[nH]cn1)[C@@H](C)O)C(=O)N[C@@H](CO)C(=O)N[C@@H](CC(=O)O)C(=O)N[C@@H](Cc1ccc(-c2ccccc2)cc1)C(=O)N[C@@H](Cc1ccc(-c2ccccc2)cc1)C(N)=O [RXL-3005] (H-H[Aib]EGT[Phe(2-F)]ASD[Bip][Bip]-NH2) ?
A) 102

Q) May I ask what Emax has been recorded for C[C@@H](O)[C@H](NC(=O)CNC(=O)[C@H](CCC(=O)O)NC(=O)C(C)(C)NC(=O)[C@@H](N)Cc1c[nH]cn1)C(=O)N[C@@](C)(Cc1ccccc1F)C(=O)N[C@H](C(=O)N[C@@H](CO)C(=O)N[C@@H](CC(=O)O)C(=O)NC(C)(C)C(=O)N[C@@H](Cc1ccc(-c2ccccc2)cc1)C(N)=O)[C@@H](C)O [RXL-3051] (H-H[Aib]EGT[αMePhe(2-F)]TSD[Aib][Bip]-NH2) ?
A) 26.8

Q) May I ask what Emax has been recorded for C[C@@H](O)[C@H](NC(=O)CNC(=O)[C@H](CCC(=O)O)NC(=O)C(C)(C)NC(=O)[C@@H](N)Cc1c[nH]cn1)C(=O)N[C@@H](Cc1ccc(O)cc1)C(=O)N[C@H](C(=O)N[C@@H](CO)C(=O)N[C@@H](CC(=O)O)C(=O)N[C@@H](Cc1ccc(-c2ccccc2)cc1)C(=O)N[C@@H](Cc1ccc(-c2ccccc2)cc1)C(N)=O)[C@@H](C)O [RXL-3021] (H-H[Aib]EGTYTSD[Bip][Bip]-NH2) ?
A) 100

Q) May I ask what Emax has been recorded for C[C@@H](O)[C@H](NC(=O)CNC(=O)[C@H](CCC(=O)O)NC(=O)C(C)(C)NC(=O)[C@@H](N)Cc1c[nH]cn1)C(=O)N[C@@](C)(Cc1ccccc1F)C(=O)N[C@H](C(=O)NC(C)(C)C(=O)N[C@@H](CC(=O)O)C(=O)N[C@@H](Cc1ccc(-c2ccccc2)cc1)C(=O)N[C@@H](Cc1ccc(-c2ccccc2)cc1)C(N)=O)[C@@H](C)O [RXL-3035] (H-H[Aib]EGT[αMePhe(2-F)]T[Aib]D[Bip][Bip]-NH2) ?
A) 79.1

Q) May I ask what Emax has been recorded for C[C@@H](O)[C@H](NC(=O)CNC(=O)[C@H](CCC(=O)O)NC(=O)C(C)(C)NC(=O)[C@@H](N)Cc1c[nH]cn1)C(=O)N[C@@](C)(Cc1ccccc1F)C(=O)N[C@H](C(=O)N[C@@H](CO)C(=O)N[C@@H](CC(=O)O)C(=O)N[C@@H](Cc1ccc(-c2ccccc2)cc1)C(=O)N[C@@H](Cc1ccc(-c2ccccc2)cc1)C(N)=O)[C@@H](C)O [RXL-101] (H-H[Aib]EGT[αMePhe(2-F)]TSD[Bip][Bip]-NH2) ?
A) 117

Please look at the items below and tell me Emax for each one, in order.
1. C[C@@H](O)[C@H](NC(=O)CNC(=O)[C@H](CCC(=O)O)NC(=O)C(C)(C)NC(=O)[C@@H](N)Cc1c[nH]cn1)C(=O)N[C@H](Cc1ccccc1)C(=O)N[C@H](C(=O)N[C@@H](CO)C(=O)N[C@@H](CC(=O)O)C(=O)N[C@@H](Cc1ccc(-c2ccccc2)cc1)C(=O)N[C@@H](Cc1ccc(-c2ccccc2)cc1)C(N)=O)[C@@H](C)O [RXL-3022]
2. C[C@@H](O)[C@H](NC(=O)CNC(=O)[C@H](CCC(=O)O)NC(=O)C(C)(C)NC(=O)[C@@H](N)Cc1c[nH]cn1)C(=O)N[C@@H](Cc1ccccc1)C(=O)N[C@H](C(=O)N[C@@H](CO)C(=O)N[C@@H](CC(=O)O)C(=O)N[C@@H](Cc1ccc(-c2ccccc2)cc1)C(=O)N[C@@H](Cc1ccc(-c2ccccc2)cc1)C(N)=O)[C@@H](C)O [RXL-100]
3. C[C@@H](O)[C@H](NC(=O)CNC(=O)[C@H](CCC(=O)O)NC(=O)C(C)(C)NC(=O)[C@@H](N)Cc1c[nH]cn1)C(=O)N[C@@H](Cc1c(F)c(F)c(F)c(F)c1F)C(=O)N[C@H](C(=O)N[C@@H](CO)C(=O)N[C@@H](CC(=O)O)C(=O)N[C@@H](Cc1ccc(-c2ccccc2)cc1)C(=O)N[C@@H](Cc1ccc(-c2ccccc2)cc1)C(N)=O)[C@@H](C)O [RXL-3018]

A)
1. 101
2. 110
3. 102
